Experiment: Pharmacokinetics after intravenous and oral administration in rats
Type: in vivo
Conditions: Rats; iv dosing; dose 1 mg/kg (0.5 for Ex. 1, 10, 11, 35; 0.48 for Ex. 24)
Measured endpoint: CL/F (mL/min/kg)

Worked examples, 5 compounds total:
Compound: CC[C@H](Nc1ncnc(N)c1-c1nnn(C)n1)c1nc2cccc(-c3cnn(C)c3)c2c(=O)n1C1CC1
CL/F / mL/min/kg: 20.8

Compound: CC[C@H](Nc1ncnc(N)c1-c1nc(C)no1)c1nc2cccc(-c3cnn(C)c3)c2c(=O)n1C1CC1
CL/F / mL/min/kg: 64

Compound: CC[C@@H](Nc1ncnc(N)c1-c1ccon1)c1nc2cccc(Cl)c2c(=O)n1C1CC1
CL/F / mL/min/kg: 85.3

Compound: CC[C@H](Nc1ncnc(N)c1-c1ncc(C)o1)c1nc2cccc(C)c2c(=O)n1-c1ccccc1C (single isomer, unassigned)
CL/F / mL/min/kg: 61.2

Compound: CC[C@H](Nc1ncnc(N)c1-c1nnc(C)o1)c1nc2cccc(F)c2c(=O)n1-c1ccccc1
CL/F / mL/min/kg: 57.3

1 = CC[C@H](Nc1ncnc(N)c1-c1ncn(C)n1)c1nc2cccc(Cl)c2c(=O)n1-c1ccccc1F (single isomer, unassigned)
2 = Cc1nnc(-c2c(N)ncnc2N[C@@H](C)c2nc3cccc(Cl)c3c(=O)n2-c2ccccc2)o1
3 = Cc1noc(-c2c(N)ncnc2N[C@@H](C)c2nc3cccc(-c4cnn(C)c4)c3c(=O)n2-c2ccccc2)n1
4 = C[C@H](Nc1ncnc(N)c1-c1nnn(C)n1)c1nc2cccc(-c3cnn(C)c3)c2c(=O)n1C1CC1
Problem: Order field: CL/F | Direction: descending (largest first) Would you mind listing the labels in the order asked for?
Solution: 1, 2, 4, 3

I = CC[C@H](Nc1ncnc(N)c1-c1nnc(C)o1)c1nc2cccc(Cl)c2c(=O)n1-c1ccccc1C
II = CC[C@H](Nc1ncnc(N)c1-c1nc(C)co1)c1nc2cccc(Cl)c2c(=O)n1C1CC1
Problem: Could you determine which record has the numerically smaller CL/F? Candidates: I and II Mark your answer with the label of the selected entry.
Solution: I

P = CC[C@H](Nc1ncnc(N)c1-c1noc(C)n1)c1nc2cccc(Cl)c2c(=O)n1-c1ccccc1
Q = CC[C@H](Nc1ncnc(N)c1-c1ccon1)c1nc2cccc(Cl)c2c(=O)n1C1CC1
Problem: Of the two listed items, which has the higher CL/F? First: P Second: Q Your answer should be the label attached to the chosen record.
Solution: P
(P: 72.5 mL/min/kg, Q: 46.7 mL/min/kg)
